Where these numbers come from: patent US10717716B2

Molecular target: human recombinant HDAC6 (Homo sapiens)
Construct: purchased Calbiochem 382180
Sequence (Q9UBN7 whole entry): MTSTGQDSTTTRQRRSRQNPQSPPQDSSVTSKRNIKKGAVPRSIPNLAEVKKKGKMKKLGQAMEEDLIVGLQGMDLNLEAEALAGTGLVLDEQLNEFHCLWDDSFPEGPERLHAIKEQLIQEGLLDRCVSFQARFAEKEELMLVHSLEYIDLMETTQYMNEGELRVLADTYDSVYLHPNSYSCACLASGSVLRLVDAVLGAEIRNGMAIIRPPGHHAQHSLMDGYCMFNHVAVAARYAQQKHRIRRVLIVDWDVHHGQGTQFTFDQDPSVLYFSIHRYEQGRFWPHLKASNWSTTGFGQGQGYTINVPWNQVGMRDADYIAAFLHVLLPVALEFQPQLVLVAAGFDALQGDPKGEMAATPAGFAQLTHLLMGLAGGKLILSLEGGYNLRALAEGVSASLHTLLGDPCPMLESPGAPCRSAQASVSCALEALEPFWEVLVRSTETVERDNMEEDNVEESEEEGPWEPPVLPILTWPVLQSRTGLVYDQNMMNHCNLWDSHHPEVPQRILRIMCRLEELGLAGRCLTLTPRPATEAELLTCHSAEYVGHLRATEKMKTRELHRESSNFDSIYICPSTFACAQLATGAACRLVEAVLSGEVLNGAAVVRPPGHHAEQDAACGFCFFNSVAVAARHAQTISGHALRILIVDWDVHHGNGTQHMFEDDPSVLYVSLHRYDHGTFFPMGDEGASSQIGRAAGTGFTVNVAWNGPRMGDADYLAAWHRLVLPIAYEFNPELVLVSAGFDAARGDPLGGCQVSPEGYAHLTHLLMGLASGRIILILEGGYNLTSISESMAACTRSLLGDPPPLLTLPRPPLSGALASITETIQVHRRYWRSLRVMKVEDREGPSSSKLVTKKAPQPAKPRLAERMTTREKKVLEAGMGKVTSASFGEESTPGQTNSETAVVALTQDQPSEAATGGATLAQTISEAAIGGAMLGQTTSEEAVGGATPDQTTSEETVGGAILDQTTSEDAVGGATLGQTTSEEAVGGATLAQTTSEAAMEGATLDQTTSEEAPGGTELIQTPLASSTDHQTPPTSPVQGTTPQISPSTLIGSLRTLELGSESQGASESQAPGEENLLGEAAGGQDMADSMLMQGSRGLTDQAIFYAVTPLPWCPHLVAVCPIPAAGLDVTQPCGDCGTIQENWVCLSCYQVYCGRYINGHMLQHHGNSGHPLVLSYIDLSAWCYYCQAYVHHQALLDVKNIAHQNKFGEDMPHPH
Assay: HDAC6 enzyme activity inhibition assay (HDAC Fluorimetric Drug Discovery Kit)
Assay type: biochemical
Conditions: HDAC6 over HDAC1
Assay endpoint: HDAC6 selectivity (fold)

[[record]]
smiles_representation = "O=C(N1CCN(C2COC2)CC1)N(Cc1ccc(-c2nnc(C(F)F)o2)cc1F)c1cccc(F)c1"
assay_endpoint = "HDAC6 selectivity (fold)"
unit_text = "fold"
value_observed = 153

[[record]]
smiles_representation = "O=C(N1CCS(=O)(=O)CC1)N(Cc1ccc(-c2nnc(C(F)F)o2)cc1Cl)c1ccccc1"
assay_endpoint = "HDAC6 selectivity (fold)"
unit_text = "fold"
value_observed = 5

[[record]]
smiles_representation = "CN1CCN(C(=O)N(Cc2ccc(-c3nnc(C(F)F)o3)cn2)c2cccc(F)c2)CC1"
assay_endpoint = "HDAC6 selectivity (fold)"
unit_text = "fold"
value_observed = 500

[[record]]
smiles_representation = "O=C(N1CCS(=O)(=O)CC1)N(Cc1ccc(-c2nnc(C(F)F)o2)cc1F)c1ccc(Cl)cc1"
assay_endpoint = "HDAC6 selectivity (fold)"
unit_text = "fold"
value_observed = 174

[[record]]
smiles_representation = "O=C(N1CC2(COC2)C1)N(Cc1ccc(-c2nnc(C(F)F)o2)cc1F)c1cccc(F)c1"
assay_endpoint = "HDAC6 selectivity (fold)"
unit_text = "fold"
value_observed = 405


(I) Cc1cccc(N(Cc2ccc(-c3nnc(C(F)F)o3)cc2)C(=O)N2CCS(=O)(=O)CC2)c1
(II) COc1ccccc1N(Cc1ccc(-c2nnc(C(F)F)o2)cc1)C(=O)N1CCS(=O)(=O)CC1
Query string: Which is greater in HDAC6 selectivity (fold), the first item I or the second item II ? Indicate which entry you chose by stating its label.
Result string: I
(I: 196 fold, II: 77 fold)
